test system: Coxsackievirus B5; assay: Antiviral activity against human CVB5 infected in african green monkey Vero76 cells assessed as inhibition of virus-induced cytopathogenicity after 3 days by plaque reduction assay; format: functional, organism-based; settings: Enterovirus B, Vero 76, 72 h
Experimental Readout: EC50

Compound	EC50
CN(C)C(=O)Cn1nnc2ccccc21	> 100 µM
CN(C)c1cccc(C(=O)OCCn2nnc3ccccc32)c1	> 100 µM
COc1ccc(-n2nc3ccc(C(F)(F)F)cc3n2)cc1	80 µM
COc1ccc(Cn2nnc3cc(Cl)c(Cl)cc32)cc1	> 100 µM
O=C(Cn1nc2ccccc2n1)N1CCOCC1	> 100 µM

Please turn your attention to the following entry.
Name the recorded EC50 of O=c1cnn([C@@H]2O[C@H](CO)[C@@H](O)[C@H]2O)c(=O)[nH]1 , assay system Coxsackievirus B5. > 100 µM

---

assay: Cytotoxicity against african green monkey Vero 76 cells assessed as cell viability after 48 to 96 hrs by crystal violet staining method; format: cell-based; details: chlorocebus sabaeus
CC50 reference

Recorded results for 10 molecules are shown here.
Molecule	CC50
NCCn1nnc2ccccc21	> 100 µM
COc1ccc(-n2nc3cc(Cl)c(Cl)cc3n2)cc1	> 100 µM
CC(CC(=O)O)n1nc2c(Cl)c(Cl)c(Cl)c(Cl)c2n1 (configuration not stated)	25 µM
CC(C)(COc1ccc(-n2nc3ccccc3n2)cc1)C(=O)O	70 µM
Clc1cc2nn(Cc3ccccc3)nc2cc1Cl	> 100 µM
FC(F)(F)c1ccc2nn(Cc3ccccc3)nc2c1	> 100 µM
O=C(O)COc1ccc(-n2nc3ccc(Cl)cc3[n+]2[O-])cc1	100 µM
Clc1cc2nn(C3CCCCO3)nc2cc1Cl (configuration not stated)	≥ 100 µM
CN(C)C(=O)Cn1nc2ccccc2n1	> 100 µM
COc1cc(/C=C/C(=O)OCCCn2nnc3ccccc32)cc(OC)c1OC	> 100 µM

Give the value of CC50 reported for the following: CC(C)(Oc1ccc(-n2nc3ccc(Cl)cc3n2)cc1)C(=O)O 70 µM

Give the value of CC50 reported for the following: COc1ccccc1N1CCN(CCCOc2ccc(-n3nc4ccc(C(F)(F)F)cc4n3)cc2)CC1 100 µM

---

pEC50 reference
system: Bovine viral diarrhea virus 1; experiment: Antiviral activity against BVDV infected in MDBK cells assessed as inhibition of virus-induced cytopathogenicity after 3 to 4 days by MTT assay; format: functional, organism-based; settings: Bovine viral diarrhea virus isolates and strains
pEC50: −log10 of the molar value.

Recorded results for 4 molecules are shown here.
Molecule	Experimental Readout	Observed Result
CC(CC(=O)O)n1nc2ccc3ccccc3c2n1 (configuration not stated)	pEC50	< 4.00
C[C@@H](Oc1ccc(-n2nc3ccccc3n2)cc1)C(=O)O	pEC50	< 4.00
O=C(O)COc1ccc(-n2nc3ccc(Cl)cc3[n+]2[O-])cc1	pEC50	< 4.00
CN(C)c1cccc(C(=O)OCCn2nc3ccccc3n2)c1	pEC50	< 4.00

Give the value of pEC50 reported for the following: Cc1cc2nnn(C3CCCO3)c2cc1C (configuration not stated) < 4.00

Give the value of pEC50 reported for the following: Clc1cc2nn(Cc3ccccc3)nc2cc1Cl < 4.00

---

tested on: Bovine viral diarrhea virus 1; assay: Antiviral activity against BVDV infected in MDBK cells assessed as inhibition of virus-induced cytopathogenicity after 3 to 4 days by MTT assay; type: functional, organism-based; conditions: Bovine viral diarrhea virus isolates and strains
Experimental Readout: EC50

Smiles Entry	EC50
Cc1ccc2nn(-c3ccc(OCCCC(C)(C)C(=O)O)cc3)nc2c1	> 100 µM

Give the value of EC50 reported for the following: Oc1ccc(-n2nc3ccc(C(F)(F)F)cc3n2)cc1 30 µM

Give the value of EC50 reported for the following: Cc1cc(-n2nc3ccccc3n2)cc(C)c1OC(C)(C)C(=O)O > 100 µM
